Listed here are compounds together with their documented inhibition.
# systemName: Coagulation factor XI (Homo sapiens)
# Sequence (P03951 19-387 limits assumed): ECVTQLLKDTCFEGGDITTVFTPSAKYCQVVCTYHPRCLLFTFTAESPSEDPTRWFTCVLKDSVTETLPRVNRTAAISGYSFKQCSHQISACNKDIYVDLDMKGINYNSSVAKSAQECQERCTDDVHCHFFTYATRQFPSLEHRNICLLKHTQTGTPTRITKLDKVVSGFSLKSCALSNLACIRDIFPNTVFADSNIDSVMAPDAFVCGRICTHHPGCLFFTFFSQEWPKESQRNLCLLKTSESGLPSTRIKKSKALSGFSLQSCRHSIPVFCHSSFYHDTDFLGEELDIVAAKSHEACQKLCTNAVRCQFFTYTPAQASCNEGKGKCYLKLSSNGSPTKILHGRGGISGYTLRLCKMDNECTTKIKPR
# Sequence (P03951 388-625 limits assumed): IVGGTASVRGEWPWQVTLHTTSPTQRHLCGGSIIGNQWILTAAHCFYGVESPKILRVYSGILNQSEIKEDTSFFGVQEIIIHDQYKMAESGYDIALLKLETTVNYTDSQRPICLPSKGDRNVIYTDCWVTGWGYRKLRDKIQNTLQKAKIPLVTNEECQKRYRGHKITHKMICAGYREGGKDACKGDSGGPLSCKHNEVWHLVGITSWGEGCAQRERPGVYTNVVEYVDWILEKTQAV
# assayExplanation: Inhibition of human FXIa using S-2366 as chromogenic substrate preincubated with enzyme for 10 mins followed by substrate addition by spectrophotometric analysis relative to control
# Parameters: concentration or dose not given beside the values
readoutName: inhibition (%)

In [3]: df
Out[3]:
                      structuresmilesstring  readoutname  datavalue
0  O=c1c2ccccc2nc(-c2cccc(OS(=O)(=O)O)c2)n1Cc1ccc(Cn2c(-c3cccc(OS(=O)(=O)O)c3)nc3ccccc3c2=O)cc1   inhibition        100
1  O=c1c2ccccc2nc(-c2ccc(OS(=O)(=O)O)cc2)n1CCCCCCCCCCCn1c(-c2ccc(OS(=O)(=O)O)cc2)nc2ccccc2c1=O   inhibition         96
2  O=c1c2ccccc2nc(-c2ccc(OS(=O)(=O)O)cc2)n1CCCCCCCCCCCCn1cc(Cn2c(-c3ccc(OS(=O)(=O)O)cc3)nc3ccccc3c2=O)nn1   inhibition        112
3  O=c1c2ccccc2nc(-c2cccc(OS(=O)(=O)O)c2)n1CCOCCn1c(-c2cccc(OS(=O)(=O)O)c2)nc2ccccc2c1=O   inhibition         94
4  O=c1c2ccccc2nc(-c2ccc(OS(=O)(=O)O)cc2)n1CCCCCCCCCCn1c(-c2ccc(OS(=O)(=O)O)cc2)nc2ccccc2c1=O   inhibition         95
